# Tested on: Cholesterol and triglyceride in the serum
# Method summary: (i) Serum cholesterol and triglyceride reduction in rats fed a diet containing 1% of cholesterol
# Assay type: in vivo, Male Sprague-Dowley rats
# Condition parameters: rats on diet containing 1% cholesterol, test compound 0.1% (W/W) in diet, oral, 5 days, control = 100%
Assignment: determine reported Reduction Rate (%) Cholesterol for the given compounds.
Give just the number in %; leave the unit off.

Ask: Give Reduction Rate (%) Cholesterol for the following compound: CCCCCCCCCCCCCCCCOc1ccc(-c2nc(CC(=O)O)c(Oc3ccc(Cl)cc3)o2)cc1
Reply: 31

Ask: Check the records and state Reduction Rate (%) Cholesterol for CCCCCCCCCCCCCCCCOc1ccc(-c2nc(CC(=O)O)c(OCC)o2)cc1
Reply: 21

Ask: Report Reduction Rate (%) Cholesterol, nothing else, for this compound: CCOC(=O)C(C)(C)Oc1ccc(Cl)cc1 [Compound E, Clofibrate, reference compound]
Reply: 22

Ask: // fetch Reduction Rate (%) Cholesterol given entry CCCCCCCCCCCCCCCCNc1ccc(-c2nc(CC(=O)[O-])c(OCC)o2)cc1.[Na+]
Reply: 31

Ask: State, in one line, measured Reduction Rate (%) Cholesterol of CCOc1oc(-c2ccc(OCc3ccc(Cl)cc3)cc2)nc1CC(=O)O
Reply: 37
